This section lists IC50 readings for p300 HAT domain (residues 1287-1666) (Homo sapiens (Human), UniProt Q09472).
Assay Endpoint: IC50

>>> value_measured("CO[C@@H]1CCN(c2ccc(NC(=O)C(NCC(C)c3ccc(C#N)cc3)c3ccccc3)nc2)C1 (single isomer, unassigned) [92 Isomer 1]")
"881 nM"
>>> value_measured("C[C@H](CNC(C(=O)Nc1ccc(-c2cc(=O)n(C)cn2)cn1)c1ccccc1)c1ccc(C#N)cc1 (single isomer, unassigned) [106 Isomer 2]")
"25.5 nM"
>>> value_measured("CC(CNC(C(=O)Nc1ccc(N2CCN(C)S2(=O)=O)cn1)c1ccccc1)c1ccc(C#N)cc1 (single isomer, unassigned) [108 Isomer 1]")
"> 2000 nM"
>>> value_measured("Cn1cc(-c2ccc(NC(=O)C(NCCc3ccc(S(N)(=O)=O)cc3)c3ccccc3)cc2)cn1 (single isomer, unassigned) [4 Isomer 2]")
"1370 nM"
>>> value_measured("CC(=O)N1CCN(c2ccc(NC(=O)C(NC[C@@H](C)c3ccc(C#N)cc3)c3cccc(F)c3)nc2)CC1 (single isomer, unassigned) [135 Isomer 1]")
"855 nM"
>>> value_measured("N#Cc1ccc(CCNC(C(=O)Nc2ccn(C3CCOCC3)n2)c2ccccc2)cc1 (single isomer, unassigned) [30 Isomer 1]")
"> 5000 nM"
